- Target under test: HuR RRM1/2 (UniProt Q15717 18-186)
- Sequence (Q15717 18-186): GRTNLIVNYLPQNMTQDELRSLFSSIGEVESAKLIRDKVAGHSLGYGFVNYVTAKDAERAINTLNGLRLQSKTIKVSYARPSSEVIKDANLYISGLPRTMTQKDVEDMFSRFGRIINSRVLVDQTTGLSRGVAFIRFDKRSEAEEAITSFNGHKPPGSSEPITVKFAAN
- Protocol notes: fluorescence polarization; 2 nM RNA; FP: room temperature, 2 h incubation in the competition assay, buffer not given (as in cited ref 22); NMR: 100 mM NaCl, 10 mM sodium phosphate pH 6.8, 10% D2O
- Experimental setup: protein: recombinant; tags: N-terminal His6 (retained); single strand
Measured metric: Kd (nM)

[[record]]
binder = "AUUUUUAUUUU (ssRNA) [AREc-fos (fluorescein)]"
measured_metric = "Kd"
measured = 22.2

